- testSystem: human recombinant 15-PGDH (Homo sapiens, UniProt P15428)
- testDescription: Recombinant 15-PGDH enzymatic inhibition assay (PGDH-Lumi, NADH signal)
- experimentalParameters: recombinant 15-PGDH; 15 min pre-incubation, 60 min reaction with PGE2 and NAD+, NADH signal
reportedProperty: IC50 (nM)

molecule | IC50 / nM
Cn1cc2cc(-c3ncc4nc([C@]5(O)C[C@@H](C(F)F)C5)sc4n3)cnc2n1 [Compound C109C] | 3.35
Cn1cc2cc(-c3ccc4cc([C@@H](O)[C@H]5C[C@H](C(F)(F)F)C5)sc4n3)cnc2n1 (single isomer, unassigned) [Compound B84ST] | 1.21
Cn1cc2cc(-c3ncc4cc([C@]5(O)C[C@@H](C(F)F)C5)sc4n3)cnc2n1 [Compound C80C] | 0.771

(P) CCC[C@H](O)c1cc2ccc(-c3cnc4nn(C)cc4c3)nc2s1 (single isomer, unassigned) [Compound B27S]
(Q) Cc1c([C@@H](O)C2CCOCC2)sc2nc(-c3cnc4nn(C)cc4c3)ccc12 (single isomer, unassigned) [Compound B90S]
**Q:** Would you kindly point out which of P and Q has the smaller IC50 figure? Record your answer as the label of the chosen record.
**A:** P
(P: 12.3 nM, Q: 488 nM)

----------
- testSystem: 15-PGDH in A549 cells (Homo sapiens, UniProt P15428)
- Construct: endogenous in cells
- testDescription: A549 cellular 15-PGDH assay (PGE2 accumulation, HTRF)
- experimentalParameters: interleukin-stimulated, inhibitor 24 hrs, PGE2 by competitive HTRF, read-out: A549 Cell Assay IC50
pIC50: −log10 of the molar value.
reportedProperty: pIC50

Below, each entry is followed by its recorded pIC50 result.
molecule | resultNumber
Cn1cc2cc(-c3ccc4cc([C@]5(O)C[C@@]6(CC6(F)F)C5)sc4n3)cnc2n1 (single isomer, unassigned) [Compound C88T] | 9.23
Cn1cc2cc(-c3ncc4cc(C5(O)CC6(CC6)C5)sc4n3)cnc2n1 | 9.00
Cn1cc2cc(-c3cc(-c4ccnn4C)c4cc(C(O)C5CCC5)sc4n3)cnc2n1 (stereo not drawn) | 8.98

(A) Cn1cc2cc(-c3ccc4cc([C@]5(O)C[C@]6(CC6(F)F)C5)sc4n3)cnc2n1 (single isomer, unassigned) [Compound C88C]
(B) Cn1cc2cc(-c3cnc4sc([C@@H](O)C5CC(F)(F)C5)cc4c3)cnc2n1 (single isomer, unassigned) [Compound B77S]
**Q:** Out of A and B , name the one with the higher pIC50. Answer by quoting the chosen item's label.
**A:** A
(A: 9.34, B: 7.94)

(P) Cn1cc2cc(-c3ccc4cc([C@H](O)C5CC5)sc4n3)cnc2n1 (single isomer, unassigned) [Compound B16R]
(Q) Cn1cc2cc(-c3ccc4cc([C@H](CO)C5CC(F)(F)C5)sc4n3)cnc2n1 (single isomer, unassigned) [Compound B80S]
(R) Cn1cc2cc(-c3ccc4sc([C@@H](O)C5CC(F)(F)C5)cc4n3)cnc2n1 (single isomer, unassigned) [Compound B73S]
**Q:** Order these by pIC50, descending, and give the full ranking. Answer by naming the labels in the order asked.
**A:** P, Q, R

----------
- testSystem: 15-PGDH in A549 cells (Homo sapiens)
- Construct: endogenous in cells
- testDescription: A549 cellular 15-PGDH assay (PGE2 accumulation, HTRF)
- experimentalParameters: interleukin-stimulated, inhibitor 24 hrs, PGE2 by competitive HTRF, read-out: A549 Cell Assay IC50
- Protocol: This assay was used for the quantification of IL-13 induced Native Prostaglandin E2 (PGE2) produced by A549 cells (epithelial cells from lung carcinoma) in cell culture supernatants. […] PGE2 was detected in a competitive HTRF assay by using anti PGE2 antibody labeled with Europium cryptate, and PGE2 labeled with deuterium. […] From this binding data, IC50 values were calculated.
reportedProperty: IC50 (nM)

Observe how each entry below is paired with its result.
compound | IC50 [nM]
Cn1cc2cc(-c3ccc4cc([C@@H](O)[C@H]5C[C@H](C(F)(F)F)C5)sc4n3)cnc2n1 (single isomer, unassigned) [Compound B84ST] | 0.642
Cc1cn2ccc(-c3ccc4cc([C@H](O)C5CC(F)(F)C5)sc4n3)cc2n1 (single isomer, unassigned) [Compound B55R] | 0.657
Cc1nc2cc(-c3ccc4cc([C@H](O)C5CC(F)(F)C5)sc4n3)ccc2o1 (single isomer, unassigned) [Compound B46R] | 0.697
COCC[C@@H](O)c1cc2ccc(-c3cnc4nn(C)cc4c3)nc2s1 (single isomer, unassigned) [Compound B29R] | 0.745

(A) CC(C)C(O)c1cc2ccc(-c3cnc4nn(C)cc4c3)nc2s1 (stereo not shown)
(B) Cc1c([C@@H](O)C2CC(F)(F)C2)sc2nc(-c3cnc4nn(C)cc4c3)ccc12 (single isomer, unassigned) [Compound B83S]
**Q:** Between these two entries, A and B , state which has the higher IC50. I would appreciate it if you answered with the label of your choice.
**A:** B

----------
- testSystem: 15-PGDH in A549 cells (Homo sapiens)
- Construct: endogenous in cells
- testDescription: A549 cellular 15-PGDH assay (PGE2 accumulation, HTRF)
- experimentalParameters: interleukin-stimulated, inhibitor 24 hrs, PGE2 by competitive HTRF, read-out: A549 Cell Assay IC50
pIC50: −log10 of the molar value.
reportedProperty: pIC50

Example cases with answers are listed next.
molecule | testSystem | resultNumber
CCC[C@@H](O)c1cc2ccc(-c3cnc4nn(C)cc4c3)nc2s1 (single isomer, unassigned) [Compound B27R] | 15-PGDH in A549 cells (Homo sapiens) | 9.14
Cn1cc2cc(-c3ccc4c(Cl)c(C5(O)CC(C)(C)C5)sc4n3)cnc2n1 | 15-PGDH in A549 cells (Homo sapiens) | 8.90
Cn1cc2cc(-c3ccc4cc(C(O)CCC(F)(F)F)sc4c3)cnc2n1 (stereo not drawn) | 15-PGDH in A549 cells (Homo sapiens) | 8.03
Cc1c([C@H](O)C2CCOCC2)sc2nc(-c3cnc4nn(C)cc4c3)ccc12 (single isomer, unassigned) [Compound B90R] | 15-PGDH in A549 cells (Homo sapiens) | 9.07

(a) Cn1cc2cc(-c3ccc4cc(C(O)C5CCOC5)sc4n3)cnc2n1 (stereo not drawn)
(b) CO[C@@H]1CC[C@]1(O)c1cc2ccc(-c3cnc4nn(C)cc4c3)nc2s1 (single isomer, unassigned) [Compound C70RR]
**Q:** Hi there, can you help? I need to know whether a or b has lower measured pIC50. // caller expects the label of the chosen entry
**A:** b

----------
- testSystem: human recombinant 15-PGDH (Homo sapiens)
- Sequence (P15428 1-266): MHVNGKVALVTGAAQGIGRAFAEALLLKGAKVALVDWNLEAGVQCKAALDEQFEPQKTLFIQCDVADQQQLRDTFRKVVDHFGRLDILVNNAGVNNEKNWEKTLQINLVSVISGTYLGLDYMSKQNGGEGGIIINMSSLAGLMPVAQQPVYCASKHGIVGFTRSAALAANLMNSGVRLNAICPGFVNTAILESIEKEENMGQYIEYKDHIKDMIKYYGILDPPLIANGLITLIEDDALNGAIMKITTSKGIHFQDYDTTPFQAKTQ
- testDescription: Recombinant 15-PGDH enzymatic inhibition assay (PGDH-Lumi, NADH signal)
- experimentalParameters: recombinant 15-PGDH; 15 min pre-incubation, 60 min reaction with PGE2 and NAD+, NADH signal
reportedProperty: IC50 (nM)

compound | IC50 / nM
Cn1ncc2cc(-c3ccc4cc(C(O)C5CCOCC5)sc4n3)ccc21 (stereo not shown) | 20.7
Cn1cc2cc(-c3ccc4cc([C@@]5(O)CCC5(C)C)sc4n3)cnc2n1 (single isomer, unassigned) [Compound C65R] | 32.6
Cn1cc2cc(-c3ccc4nc(C5(O)CC(C)(C)C5)sc4n3)cnc2n1 | 0.58
Cc1nc2cc(-c3ccc4cc([C@@H](O)C5CC(F)(F)C5)sc4n3)ccc2o1 (single isomer, unassigned) [Compound B46S] | 2.1
Cn1nnc2cc(-c3ncc4cc([C@]5(O)C[C@@H](C(F)F)C5)sc4n3)cnc21 [Compound C85C] | 2.89

(a) Cn1cc2cc(-c3ccc4cc([C@@H](O)C5CCCC5)sc4c3)cnc2n1 (single isomer, unassigned) [Compound B58S]
(b) Cn1cc2cc(-c3ccc4cc([C@H](O)C5CCCC5)sc4c3)cnc2n1 (single isomer, unassigned) [Compound B58R]
**Q:** Of a and b , which carries the smaller reported IC50 figure? Pick one and reply with its label.
**A:** b

(a) CCC(C)(O)c1cc2ccc(-c3cnc4nn(C)cc4c3)nc2s1 (stereo not shown)
(b) Cn1cc2cc(-c3ccc4nc([C@]5(O)C[C@]6(CC6(F)F)C5)sc4n3)cnc2n1 (single isomer, unassigned) [Compound C115C]
**Q:** Which has the smaller recorded IC50, a or b ? Your answer should be the label of the entry you select.
**A:** b
